Listing of recorded protein stability index by entry.
B1: ZNF263 (parent)
chain: EKPYKCPECGEIFAHSSNLLRHQR

# Variants of: B1
# Experiment Description: protein stability index of a GFP-peptide fusion (GPS, HEK-293T) (PSI 1-6); higher = more stable;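 also: lentivirally expressed fusions sorted by FACS into six bins by GFP to DsRed ratio, PSI derived from sequencing read proportions per bin multiplied by bin number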
# Measurement Context: c terminus: a fixed tail appended
The response must contain the number and no unit.

Recorded protein stability index, per entry:
INSERT INTO assay_data (mutation_annotation, quantitative_result) VALUES
  ('L19K', 2.73),
  ('S16E', 3.04),
  ('R21Y', 3.36),
  ('A14I', 2.27),
  ('R21P', 3.43);

**Query** Looking for the measured protein stability index of E11T , can you help?
**Result** 2.1

**Query** Looking for the measured protein stability index of E11F , can you help?
**Result** 1.79

**Query** Looking for the measured protein stability index of P7C , can you help?
**Result** 1.67

**Query** Looking for the measured protein stability index of C6E , can you help?
**Result** 3.76

**Query** Looking for the measured protein stability index of S16T , can you help?
**Result** 1.84
